protocol_text: self-splicing fitness, log relative to wild type (ln ratio); higher = more splicing; Tetrahymena group I intron in knt gene, E. coli kanamycin selection, DiMSum; sequences stand for … in CUCUCU…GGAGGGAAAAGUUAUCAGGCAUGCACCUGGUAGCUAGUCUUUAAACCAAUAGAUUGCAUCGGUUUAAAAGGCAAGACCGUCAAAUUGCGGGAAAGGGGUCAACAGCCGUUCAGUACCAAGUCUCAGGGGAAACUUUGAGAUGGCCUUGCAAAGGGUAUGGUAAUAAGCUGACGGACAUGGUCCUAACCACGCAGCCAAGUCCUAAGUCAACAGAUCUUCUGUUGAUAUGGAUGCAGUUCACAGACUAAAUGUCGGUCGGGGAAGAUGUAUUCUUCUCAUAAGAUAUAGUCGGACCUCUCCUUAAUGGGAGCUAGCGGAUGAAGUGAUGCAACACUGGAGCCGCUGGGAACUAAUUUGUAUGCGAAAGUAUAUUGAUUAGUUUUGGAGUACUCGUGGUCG;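 note: selection with 25 µg/mL kanamycin versus none on LB agar overnight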
run_parameters: 37 °C
Think of -1 as a floor: if self-splicing fitness (ln) stands on it or above, it is Satisfied; beneath it, Not satisfied.

biopolymer_sequence	group
AUUCAGCAAUAUUACGUAUC	Not satisfied
UAUCAGCAAUAUUACGUUAU	Not satisfied
CUUUAGCAAUAUUACGUACG	Satisfied
UCUGAGCAAUAUUACGCCGA	Satisfied
GCAUAGCAAUAUUACGGACU	Satisfied
CGUGAGCAAUAUUACGAGCC	Not satisfied
AAACAGCAAUAUUACGGGAC	Not satisfied
GGUCAGCAAUAUUACGCUGU	Not satisfied
UGUCAGCAAUAUUACGAGUU	Not satisfied
CACCAGCAAUAUUACGGCAA	Satisfied
GGAAAGCAAUAUUACGAUAU	Satisfied
CACUAGCAAUAUUACGUAUC	Not satisfied
AGCGAGCAAUAUUACGUUAG	Not satisfied
CGGGAGCAAUAUUACGCUAG	Not satisfied
AAACAGCAAUAUUACGGGCC	Not satisfied
ACGAAGCAAUAUUACGGUUG	Not satisfied
